Biological target: GLP-1R (Homo sapiens)
Construct: host or cells: GLP-1R CRE-bla CHO-K1 cells
Assay: EC20 GLP-1(9-36) PAM cAMP assay: dose response of compound in the presence of fixed concentration of GLP-1(9-36)
Format: cell-based
Details: dose response of compound in presence of fixed concentration of GLP-1(9-36), GLP-1R CRE-bla CHO-K1 cells, read-out: EC20 GLP-1(9-36) PAM EC50
Measured EC50 of individual entries

Example entries begin here.
CCCCCCCOc1ccc(-c2cnc(-c3ccc(C[C@H](NC(=O)c4ccc(C(C)(C)C)s4)C(=O)N4CCC[C@H]4C(=O)O)cc3)nc2)nc1 [Compound 1064] ... 800 to 2500 nM
CCCCc1noc(-c2cnc(-c3ccc(C[C@H](NC(=O)c4ccc(C(C)(C)C)cc4)C(=O)NCCC(=O)O)cc3)nc2)n1 [Compound 743] ... 5000 to 10000 nM

Could you tell me which EC50 is on file for CCCCCCCOc1ccc(-c2cnc(-c3ccc(C[C@H](NC(=O)c4ccc(C(C)(C)C)cc4)C(=O)N[C@@H](Cc4cnn(C)c4)C(=O)O)cc3)nc2)cc1 [Compound 576] ?
800 to 2500 nM

---

Target: GLP-1R (Homo sapiens, UniProt P43220)
Construct: host or cells: GLP-1R CRE-bla CHO-K1 cells
Sequence (P43220 24-463): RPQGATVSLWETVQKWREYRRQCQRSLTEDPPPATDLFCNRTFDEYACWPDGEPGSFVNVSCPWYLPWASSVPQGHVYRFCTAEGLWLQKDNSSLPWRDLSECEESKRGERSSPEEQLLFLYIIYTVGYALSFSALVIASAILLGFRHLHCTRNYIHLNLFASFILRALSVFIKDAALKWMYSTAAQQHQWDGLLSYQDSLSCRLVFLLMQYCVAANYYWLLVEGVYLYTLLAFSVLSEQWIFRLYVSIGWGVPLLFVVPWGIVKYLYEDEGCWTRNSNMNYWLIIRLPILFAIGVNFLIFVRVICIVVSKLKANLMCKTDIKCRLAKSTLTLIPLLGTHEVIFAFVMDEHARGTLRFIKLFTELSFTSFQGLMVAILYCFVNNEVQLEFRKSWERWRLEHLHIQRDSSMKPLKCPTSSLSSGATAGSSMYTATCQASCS
Sequence (P01275 100-127 partner limits assumed): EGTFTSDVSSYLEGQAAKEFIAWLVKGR
Test: EC20 GLP-1(9-36) PAM cAMP assay: dose response of compound in the presence of fixed concentration of GLP-1(9-36)
Assay type: cell-based
Conditions: dose response of compound in presence of fixed concentration of GLP-1(9-36), GLP-1R CRE-bla CHO-K1 cells, read-out: EC20 GLP-1(9-36) PAM EC50
pEC50: −log10 of the molar value.
Quick reference: pEC50 of the listed items.

Sample records with pEC50:
C[C@@H](NC(=O)[C@H](Cc1ccc(-c2ncc(-c3cc(OC(F)(F)F)ccc3F)cn2)cc1)NC(=O)c1ccc(C(C)(C)C)s1)C(=O)O [Compound 1026] ... 5.30 to 5.60
CCCCCCCOc1ccc(-c2cnc(-c3ccc(C[C@H](NC(=O)c4ccc(C(C)(C)C)s4)C(=O)N[C@H](C(=O)O)[C@@H](C)O)cc3)nc2)cc1 [Compound 645] ... > 6.10

So what's the measured pEC50 for this one? CC(C)CCCCOc1ccc(-c2cnc(-c3ccc(C[C@H](NC(=O)c4ccc(C(C)(C)C)cc4)C(=O)N[C@H](C)C(=O)O)cc3)nc2)cc1 [Compound 792]
5.60 to 6.10

What do we get for CCCCCCCOc1ccc(-c2nnc(-c3ccc(C[C@H](NC(=O)c4ccc(C(C)(C)C)cc4)C(=O)N[C@H](C)C(=O)O)cc3)s2)cc1 [Compound 802] ?
5.30 to 5.60

Similarly, CCCCC(=O)c1ccc(-c2cnc(-c3ccc(C[C@H](NC(=O)c4ccc(C(C)(C)C)s4)C(=O)N[C@H](C)C(=O)O)cc3)nc2)c(C)c1 [Compound 1014] ?
5.00 to 5.30

Same read-out for CCCCCCCOc1ccc(-c2nc(-c3ccc(C[C@H](NC(=O)c4ccc(C(C)(C)C)cc4)C(=O)N[C@H](C)C(=O)O)cc3)no2)cc1 [Compound 801] ?
5.00 to 5.30

---

Target: GLP-1R (Homo sapiens, UniProt P43220)
Construct: host or cells: GLP-1R CRE-bla CHO-K1 cells
Assay: EC20 GLP-1(9-36) PAM cAMP assay: dose response of compound in the presence of fixed concentration of GLP-1(9-36)
Assay type: cell-based
Details: dose response of compound in presence of fixed concentration of GLP-1(9-36), GLP-1R CRE-bla CHO-K1 cells, read-out: EC20 GLP-1(9-36) PAM EC50
reportedMetric: EC50

CCCCCCCOc1ccc(-c2cnc(-c3ccc(CC(NC(=O)c4ccc(C(C)(C)C)s4)C(=O)NCCCCCC(=O)O)cc3)nc2)cc1 (centres unmarked) ... 5000 to 10000 nM
CC[C@H]1CC[C@H](c2ccc(N3CCN(c4ccc(C[C@H](NC(=O)c5ccc(C(C)(C)C)s5)C(=O)O)cc4)CC3)cc2)CC1 ... 5000 to 10000 nM
CCCCCCCOc1ccc(-c2cnc(-c3ccc(C[C@H](NC(=O)c4oc(C(C)(C)C)cc4C)C(=O)N4CC(C(=O)O)C4)cc3)nc2)cc1 ... 800 to 2500 nM
CCCCCCCOc1ccc(-c2cnc(-c3ccc(C[C@H](NC(=O)c4ccc(C(C)(C)C)cc4)C(=O)N4CC(C(=O)O)C4)cc3)nc2)cc1 ... < 800 nM

API: value(readout=EC50, system=GLP-1R (Homo sapiens, UniProt P43220)) for record CCCCCCCOc1ccc(-c2cnc(-c3ccc(C[C@H](NC(=O)c4ccc(OC)cc4)C(=O)N4CC(C(=O)O)C4)cc3)nc2)cc1
800 to 2500 nM
